assay: Inhibition of ADAM17 in human A549 cells assessed as potentiation of gefitinib-mediated inhibition of cell viability by measuring gefitinib IC50 at 40 uM incubated for 1 hr followed by gefitinib addition measured after 72 hrs by CellTiter-Glo assay (Rvb = 8.4 microM)
property-name: IC50 (µM)
The reply should contain only the number, in µM.

**Query** Determine from records and report IC50 for `O=C1NC[C@@H](Cc2ccc(O)cc2)N(C[C@@H]2CCCN2C[C@@H](Cc2ccc3ccccc3c2)N2C[C@H](Cc3ccc(O)cc3)N(CCC34CC5CC(CC(C5)C3)C4)C(=O)C2=O)C1=O`
**Result** 1.9
